Target System: recombinant human MAO-B (monoamine oxidase-B) (Homo sapiens, UniProt P27338)
Construct: purchased Sigma-Aldrich
Sequence (P27338 1-520): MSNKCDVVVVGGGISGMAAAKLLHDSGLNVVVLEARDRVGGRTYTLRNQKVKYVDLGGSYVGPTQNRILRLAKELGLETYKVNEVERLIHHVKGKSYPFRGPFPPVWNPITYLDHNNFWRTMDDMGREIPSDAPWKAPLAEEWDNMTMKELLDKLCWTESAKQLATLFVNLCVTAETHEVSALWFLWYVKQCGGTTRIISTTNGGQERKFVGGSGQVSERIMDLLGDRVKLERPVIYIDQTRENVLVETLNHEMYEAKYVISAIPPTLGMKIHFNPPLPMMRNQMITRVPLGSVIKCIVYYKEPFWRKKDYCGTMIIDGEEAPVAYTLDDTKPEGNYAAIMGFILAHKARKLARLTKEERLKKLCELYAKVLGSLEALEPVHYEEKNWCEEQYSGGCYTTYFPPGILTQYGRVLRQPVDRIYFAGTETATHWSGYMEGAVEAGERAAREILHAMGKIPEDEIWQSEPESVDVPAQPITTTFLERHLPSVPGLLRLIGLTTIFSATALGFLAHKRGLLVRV
Test Summary: Activity evaluation on recombinant human MAO-B (Amplex Red/HRP-coupled assay, 1 mM benzylamine substrate)
Assay type: biochemical
Conditions: 1 mM benzylamine substrate, read-out: Inhibitory Activity (IC50, nM) MAO-B
Counter-ions that a name gives are not always drawn.
Measurement Label: IC50

(Q) Can you look up IC50 on recombinant human MAO-B (monoamine oxidase-B) (Homo sapiens, UniProt P27338) for CCn1cc(-c2cc(F)c(Cn3cnn(CC(CN)=C(F)F)c3=O)s2)ccc1=O [Example 299, Trifluoroacetate] ?
(A) > 100000 nM

(Q) Can you look up IC50 on recombinant human MAO-B (monoamine oxidase-B) (Homo sapiens, UniProt P27338) for NCC(Cn1ncn(Cc2ccc(-c3ccc4c(c3)OCO4)cc2)c1=O)=C(F)F [Example 268, Trifluoroacetate] ?
(A) 1870 nM

(Q) Can you look up IC50 on recombinant human MAO-B (monoamine oxidase-B) (Homo sapiens, UniProt P27338) for CN1C(=O)CCc2cc(-c3ccccc3Cn3cnn(CC(CN)=C(F)F)c3=O)ccc21 [Example 284, trifluoroacetate] ?
(A) > 100000 nM

(Q) Can you look up IC50 on recombinant human MAO-B (monoamine oxidase-B) (Homo sapiens, UniProt P27338) for NCC(Cn1ncn(Cc2cc3ccc(-c4ccc(C(F)(F)F)nc4)cc3s2)c1=O)=C(F)F [Example 199, Trifluoroacetate] ?
(A) 1100 nM

(Q) Can you look up IC50 on recombinant human MAO-B (monoamine oxidase-B) (Homo sapiens, UniProt P27338) for CCn1cc(-c2ccc(Cn3cnn(CC(CN)=C(F)F)c3=O)cc2)ccc1=O [Example 270, Trifluoroacetate] ?
(A) > 100000 nM

(Q) Can you look up IC50 on recombinant human MAO-B (monoamine oxidase-B) (Homo sapiens, UniProt P27338) for CS(=O)(=O)n1cc(-c2ccc(Cn3cnn(CC(CN)=C(F)F)c3=O)s2)cn1 [Example 293, Trifluoroacetate] ?
(A) > 100000 nM

(Q) Can you look up IC50 on recombinant human MAO-B (monoamine oxidase-B) (Homo sapiens, UniProt P27338) for Cc1cc(-c2ccc3c(c2)OCCN3C)cnc1-n1cnn(CC(CN)=C(F)F)c1=O [Example 223, Trifluoroacetate] ?
(A) 38000 nM

(Q) Can you look up IC50 on recombinant human MAO-B (monoamine oxidase-B) (Homo sapiens, UniProt P27338) for CS(=O)(=O)c1ccc(-c2cccc(Cn3cnn(CC(CN)=C(F)F)c3=O)c2)cc1 [Example 272, Trifluoroacetate] ?
(A) 23800 nM

(Q) Can you look up IC50 on recombinant human MAO-B (monoamine oxidase-B) (Homo sapiens, UniProt P27338) for CN(C)c1cc(-c2cccc(-n3cnn(CC(CN)=C(F)F)c3=O)n2)ccc1F [Example 217, Trifluoroacetate] ?
(A) 13700 nM

(Q) Can you look up IC50 on recombinant human MAO-B (monoamine oxidase-B) (Homo sapiens, UniProt P27338) for COCCNc1ncc(-c2cnc(-n3cnn(CC(CN)=C(F)F)c3=O)c(C)c2)cn1 [Example 222, Trifluoroacetate] ?
(A) > 100000 nM

(Q) Can you look up IC50 on recombinant human MAO-B (monoamine oxidase-B) (Homo sapiens, UniProt P27338) for Cc1cc(-c2ccc3sc(N)nc3c2)cnc1-n1cnn(CC(CN)=C(F)F)c1=O [Example 226, Trifluoroacetate] ?
(A) 11000 nM

(Q) Can you look up IC50 on recombinant human MAO-B (monoamine oxidase-B) (Homo sapiens, UniProt P27338) for NCC(Cn1ncn(Cc2ccc(-c3cn[nH]c3)s2)c1=O)=C(F)F [Example 292, Trifluoroacetate] ?
(A) > 100000 nM

(Q) Can you look up IC50 on recombinant human MAO-B (monoamine oxidase-B) (Homo sapiens, UniProt P27338) for Cc1cc(-c2cnc3[nH]ccc3c2)cnc1-n1cnn(CC(CN)=C(F)F)c1=O [Example 228, Trifluoroacetate] ?
(A) 3300 nM

(Q) Can you look up IC50 on recombinant human MAO-B (monoamine oxidase-B) (Homo sapiens, UniProt P27338) for CC(C)n1cc(-c2ccc(Cn3cnn(CC(CN)=C(F)F)c3=O)s2)cn1 [Example 184, Trifluoroacetate] ?
(A) 26000 nM
